Source listed as PubChem BioAssay AID624167.

- SYSTEM_NAME: UniProt:Q6IN02
- Sequence (Q6IN02 whole entry, looked up): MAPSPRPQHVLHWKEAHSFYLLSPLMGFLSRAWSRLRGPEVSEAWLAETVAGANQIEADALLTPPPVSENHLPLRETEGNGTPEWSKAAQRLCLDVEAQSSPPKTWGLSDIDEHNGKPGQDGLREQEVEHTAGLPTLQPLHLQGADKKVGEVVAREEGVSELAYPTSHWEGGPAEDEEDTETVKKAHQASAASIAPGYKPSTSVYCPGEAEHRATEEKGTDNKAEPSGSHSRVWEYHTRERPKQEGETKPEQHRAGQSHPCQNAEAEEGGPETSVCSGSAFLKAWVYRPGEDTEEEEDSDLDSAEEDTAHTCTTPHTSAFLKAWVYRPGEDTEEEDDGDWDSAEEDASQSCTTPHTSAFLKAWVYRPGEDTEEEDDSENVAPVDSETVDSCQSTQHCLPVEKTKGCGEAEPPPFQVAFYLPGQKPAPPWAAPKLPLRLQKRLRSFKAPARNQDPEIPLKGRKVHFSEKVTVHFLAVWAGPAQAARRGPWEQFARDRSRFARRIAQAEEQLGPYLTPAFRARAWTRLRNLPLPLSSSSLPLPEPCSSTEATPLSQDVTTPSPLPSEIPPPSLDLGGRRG
- PROCEDURE_DETAILS: Peg3 promoter luciferase inhibitors, potency, dose response, cell-based, HeLa, CREF/GAPDH counter-screen panel (AID 624167)
- PARTICULARS: HeLa PEG-Prom luciferase reporter, overnight, CREF/GAPDH counter-screens, mean of runs
Calls of active or inactive are those of the source.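 How the source made its calls: active means mean IC50 for reducing PEG3 promoter reporter signal at or below a set limit, with IC50 above the limit in both counter screens; inactive means the rest, including counter screen hits.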
Outcomes: 1 for active, -1 for inactive

COMPOUND: Cc1ccc(S(=O)(=O)N(C)C)cc1NC(=O)c1cncc(Br)c1
ASSIGNED_CLASS: -1
--
COMPOUND: CCc1ccc(O)c(CNCCNCc2cc(CC)ccc2O)c1
ASSIGNED_CLASS: 1
--
COMPOUND: COC(=O)C1C=CC(OC2OC(COC(C)=O)C(OC(C)=O)C(OC(C)=O)C2OC(C)=O)n2c(=O)n(-c3ccccc3)c(=O)n21 (stereo unspecified)
ASSIGNED_CLASS: 1
--
COMPOUND: COc1ccc(-n2c(O)c(/C=N/Nc3nc(C)cc(C)n3)c3ccccc3c2=O)cc1OC
ASSIGNED_CLASS: 1
--
COMPOUND: CN(Cc1ccccc1)C(=O)c1ccc(Nc2nc(C(N)Cc3ccccc3)cs2)nc1 (stereo unspecified)
ASSIGNED_CLASS: 1
--
COMPOUND: COc1ccc(C(=O)/C=C/Nc2ccccn2)cc1
ASSIGNED_CLASS: 1
--
COMPOUND: CN(C)CCCN(C(=O)c1ccc(S(=O)(=O)N(C)Cc2ccccc2)cc1)c1nc2cc3c(cc2s1)OCO3
ASSIGNED_CLASS: 1
--
COMPOUND: Cc1ccc(C)c(OCC(O)CN2CCC(CN3C(=O)c4cccc5cccc(c45)C3=O)CC2)c1 (stereo unspecified)
ASSIGNED_CLASS: 1
--
COMPOUND: Cc1ccc(C(=O)N(CCCN(C)C)c2nc3ccc(Cl)cc3s2)cc1C
ASSIGNED_CLASS: 1
--
COMPOUND: O=C(Nc1cccc(C(=O)O)c1)Nc1ccc2c(c1)OCO2
ASSIGNED_CLASS: 1
--
COMPOUND: CN(c1ccc2nc3ccccc3c(=O)n2n1)C1CCCCC1
ASSIGNED_CLASS: 1
--
COMPOUND: C/C(=N\N=C(N)N)c1ccc(Cl)cc1Cl
ASSIGNED_CLASS: 1
--
COMPOUND: CC(C)CC(N)c1csc(Nc2ccc(C(=O)N(C)Cc3ccccc3)cn2)n1 (stereo unspecified)
ASSIGNED_CLASS: -1
--
COMPOUND: COc1ccc(C)cc1Nc1n[n+](-c2ccccc2)c(-c2ccc(N(C)C)cc2)s1
ASSIGNED_CLASS: -1
--
COMPOUND: O=c1cc2oc3cc(O)c(O)cc3c(-c3ccccc3[N+](=O)[O-])c-2cc1O
ASSIGNED_CLASS: 1
--
COMPOUND: COc1ccc(/C=C/C(=O)c2ccc3c4c(cccc24)CC3)cc1OC
ASSIGNED_CLASS: -1
